Biological target: Histone acetyltransferase p300 (Homo sapiens)
Assay: Inhibition of recombinant human p300 catalytic domain (1284 to 1673 aa) using histone H3 at 100 uM after 1 hr by radiochemical assay in presence of [acetyl-3H]-acetyl coenzyme A
reported property: inhibition (%)

The following compounds have reported results that may help.
compound: COc1ccc(-c2csc(N/N=C3/CCCC(C)C3)n2)cc1 (centres undefined)
u: %
inhibition: 19
--
compound: Clc1ccc(-c2csc(N/N=C\c3c[nH]c4ccccc34)n2)cc1
u: %
inhibition: 61
--
compound: Clc1ccc(-c2csc(N/N=C\c3ccncc3)n2)cc1
u: %
inhibition: 37
--
compound: C/C(=N/Nc1nc(-c2ccc(Cl)cc2)cs1)c1cc2ccccc2oc1=O
u: %
inhibition: 62
--
compound: Clc1ccc(-c2csc(N/N=C\c3cccc4ccccc34)n2)cc1
u: %
inhibition: 9

1 = CC(C)=NN=C1NC(=O)CS1
2 = C/C(=N/Nc1nc(-c2ccc(Cl)cc2)cs1)c1ccccc1
3 = COc1ccc(-c2csc(N/N=C3/CCCC3C)n2)cc1 (centres undefined)
4 = CC1CC/C(=N/Nc2nc(-c3ccc4ccccc4c3)cs2)C1 (centres undefined)
5 = CCCC/C(C)=N/Nc1nc(-c2ccc(Cl)cc2)cs1
In this exercise, place the 5 compounds in ascending sequence of their recorded inhibition. List labels; respect the requested ordering. 5, 4, 2, 1, 3
(5: 0%, 4: 4%, 2: 7%, 1: 14%, 3: 32%)

====

Molecular target: Histone acetyltransferase KAT2B (Homo sapiens) (UniProt Q92831)
Sequence (Q92831 whole entry, looked up, the tested form may be a part): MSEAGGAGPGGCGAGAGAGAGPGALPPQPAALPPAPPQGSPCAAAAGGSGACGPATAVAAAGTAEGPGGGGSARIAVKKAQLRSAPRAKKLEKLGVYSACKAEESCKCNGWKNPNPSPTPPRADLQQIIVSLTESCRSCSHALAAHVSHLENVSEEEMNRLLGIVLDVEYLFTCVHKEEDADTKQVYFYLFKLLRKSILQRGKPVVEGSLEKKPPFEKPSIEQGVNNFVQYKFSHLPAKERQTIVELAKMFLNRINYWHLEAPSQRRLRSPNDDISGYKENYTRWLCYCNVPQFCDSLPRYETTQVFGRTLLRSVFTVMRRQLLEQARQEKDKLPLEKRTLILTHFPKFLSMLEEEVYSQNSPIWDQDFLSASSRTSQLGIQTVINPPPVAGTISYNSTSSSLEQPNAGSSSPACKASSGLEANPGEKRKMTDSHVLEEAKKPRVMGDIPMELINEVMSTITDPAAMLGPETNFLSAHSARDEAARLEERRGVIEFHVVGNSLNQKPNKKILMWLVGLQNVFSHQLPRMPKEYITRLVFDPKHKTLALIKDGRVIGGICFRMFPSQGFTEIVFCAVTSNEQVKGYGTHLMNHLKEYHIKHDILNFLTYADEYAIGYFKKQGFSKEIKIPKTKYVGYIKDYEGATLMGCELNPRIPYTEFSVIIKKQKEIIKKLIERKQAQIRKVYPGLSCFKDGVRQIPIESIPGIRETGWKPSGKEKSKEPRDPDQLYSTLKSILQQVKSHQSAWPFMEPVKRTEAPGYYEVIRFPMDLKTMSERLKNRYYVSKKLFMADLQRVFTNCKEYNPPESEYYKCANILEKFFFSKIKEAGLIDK
Assay: Inhibition of recombinant human PCAF catalytic domain (492 to 658 aa) using histone H3 at 100 uM after 1 hr by radiochemical assay in presence of [acetyl-3H]-acetyl coenzyme A
reported property: inhibition (%)

1 = CCOC(=O)c1csc(N/N=C2/CCC(C)C2)n1 (stereo not drawn)
2 = CC(C)=NNc1nc(-c2ccc(Br)cc2)cs1
So which one has the bigger inhibition here, 1 or 2 ? Response format: the label of the selected entry. 2

====

Molecular target: Histone acetyltransferase p300 (Homo sapiens) (UniProt Q09472)
Sequence (Q09472 whole entry, the tested form may be a part): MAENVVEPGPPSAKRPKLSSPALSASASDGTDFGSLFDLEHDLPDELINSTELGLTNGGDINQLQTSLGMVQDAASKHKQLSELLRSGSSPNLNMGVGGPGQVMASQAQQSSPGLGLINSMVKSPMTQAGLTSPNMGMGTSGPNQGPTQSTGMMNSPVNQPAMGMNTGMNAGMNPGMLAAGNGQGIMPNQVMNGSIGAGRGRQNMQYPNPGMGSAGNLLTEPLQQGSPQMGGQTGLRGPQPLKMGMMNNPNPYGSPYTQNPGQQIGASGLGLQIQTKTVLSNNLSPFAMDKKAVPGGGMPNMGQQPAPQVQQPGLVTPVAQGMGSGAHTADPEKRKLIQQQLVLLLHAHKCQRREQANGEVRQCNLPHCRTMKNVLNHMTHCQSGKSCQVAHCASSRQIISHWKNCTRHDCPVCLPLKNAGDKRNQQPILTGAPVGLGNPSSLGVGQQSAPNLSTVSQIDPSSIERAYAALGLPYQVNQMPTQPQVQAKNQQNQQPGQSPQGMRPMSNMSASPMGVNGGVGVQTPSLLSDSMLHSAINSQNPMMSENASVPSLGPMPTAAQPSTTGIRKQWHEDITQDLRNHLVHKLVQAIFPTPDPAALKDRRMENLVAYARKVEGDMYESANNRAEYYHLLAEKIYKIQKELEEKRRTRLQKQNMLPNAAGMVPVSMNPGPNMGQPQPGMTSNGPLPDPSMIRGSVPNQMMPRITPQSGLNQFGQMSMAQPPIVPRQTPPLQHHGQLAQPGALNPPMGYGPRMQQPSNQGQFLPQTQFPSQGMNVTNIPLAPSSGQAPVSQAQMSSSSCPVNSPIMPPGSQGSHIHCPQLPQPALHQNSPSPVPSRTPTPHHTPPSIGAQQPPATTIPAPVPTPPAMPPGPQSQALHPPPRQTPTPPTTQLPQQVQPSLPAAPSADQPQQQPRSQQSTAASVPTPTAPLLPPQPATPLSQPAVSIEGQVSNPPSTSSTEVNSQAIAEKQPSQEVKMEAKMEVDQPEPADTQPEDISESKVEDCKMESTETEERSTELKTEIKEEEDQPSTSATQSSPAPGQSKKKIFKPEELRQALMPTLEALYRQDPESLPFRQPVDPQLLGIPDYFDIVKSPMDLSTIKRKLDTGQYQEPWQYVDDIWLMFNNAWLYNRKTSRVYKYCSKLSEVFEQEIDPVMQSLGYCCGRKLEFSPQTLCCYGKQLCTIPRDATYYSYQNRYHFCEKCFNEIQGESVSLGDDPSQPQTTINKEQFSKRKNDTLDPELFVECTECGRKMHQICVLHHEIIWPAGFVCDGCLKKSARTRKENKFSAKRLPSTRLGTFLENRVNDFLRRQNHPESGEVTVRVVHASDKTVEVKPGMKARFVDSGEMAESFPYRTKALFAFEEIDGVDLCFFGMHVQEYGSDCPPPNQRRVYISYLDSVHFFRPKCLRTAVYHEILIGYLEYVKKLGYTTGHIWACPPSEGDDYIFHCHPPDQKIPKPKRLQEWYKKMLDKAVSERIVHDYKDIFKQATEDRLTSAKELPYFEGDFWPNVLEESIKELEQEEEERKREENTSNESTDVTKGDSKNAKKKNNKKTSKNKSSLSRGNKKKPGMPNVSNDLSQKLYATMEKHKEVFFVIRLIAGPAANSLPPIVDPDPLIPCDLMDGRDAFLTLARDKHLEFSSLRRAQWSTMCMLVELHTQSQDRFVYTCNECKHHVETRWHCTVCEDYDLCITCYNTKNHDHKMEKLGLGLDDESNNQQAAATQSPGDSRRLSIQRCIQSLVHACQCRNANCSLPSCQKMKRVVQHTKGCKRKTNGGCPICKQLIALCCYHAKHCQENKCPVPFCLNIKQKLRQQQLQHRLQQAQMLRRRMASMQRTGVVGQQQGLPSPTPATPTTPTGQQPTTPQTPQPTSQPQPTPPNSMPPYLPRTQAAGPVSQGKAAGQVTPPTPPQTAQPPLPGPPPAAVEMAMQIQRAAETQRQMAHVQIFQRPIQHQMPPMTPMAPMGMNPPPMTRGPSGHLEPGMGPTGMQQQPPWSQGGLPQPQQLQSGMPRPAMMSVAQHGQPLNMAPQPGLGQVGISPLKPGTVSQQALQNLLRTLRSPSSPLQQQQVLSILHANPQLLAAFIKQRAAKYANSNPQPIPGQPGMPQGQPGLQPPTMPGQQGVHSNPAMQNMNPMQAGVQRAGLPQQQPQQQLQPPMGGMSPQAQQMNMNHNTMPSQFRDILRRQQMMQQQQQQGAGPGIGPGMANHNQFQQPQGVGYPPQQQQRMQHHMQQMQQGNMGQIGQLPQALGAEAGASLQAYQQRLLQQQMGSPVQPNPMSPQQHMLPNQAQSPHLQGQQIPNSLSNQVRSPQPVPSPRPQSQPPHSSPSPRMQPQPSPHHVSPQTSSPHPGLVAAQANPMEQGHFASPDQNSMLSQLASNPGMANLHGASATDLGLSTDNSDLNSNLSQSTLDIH
Experiment: Inhibition of recombinant human p300 catalytic domain (1284 to 1673 aa) using histone H3 at 100 uM after 1 hr by radiochemical assay in presence of [acetyl-3H]-acetyl coenzyme A
reported property: inhibition (%)

In the examples that follow, each entry is paired with its recorded inhibition.
molecule: CCOC(=O)c1csc(N/N=C2/CCC(C)C2)n1 (centres undefined)
inhibition / %: 22
//
molecule: CCCCCC/C(C)=N/Nc1nc(-c2ccc(Cl)cc2)cs1
inhibition / %: 8
//
molecule: CC1CC/C(=N/Nc2nc(-c3ccc(C#N)cc3)cs2)C1 (centres undefined)
inhibition / %: 35

I = CC/C(C)=N/Nc1nc(-c2ccc(Cl)cc2)cs1
II = O=C1CSC(NN=C2CCCC2)=N1
inhibition comparison. Which is larger, I or II ? Give the chosen item's label as your response. I
(I: 33%, II: 0%)

a = C/C(=N/Nc1nc(-c2ccc(Cl)cc2)cs1)c1cccs1
b = O=c1cc(-c2cccc([N+](=O)[O-])c2)nc(NN=C2CCCC2)[nH]1
For the two items a and b , which reports the higher inhibition value? Give the chosen item's label as your response. a
(a: 26%, b: 9%)

====

Target: Histone acetyltransferase p300 (Homo sapiens) (UniProt Q09472)
Experiment: Inhibition of recombinant human p300 catalytic domain (1284 to 1673 aa) using histone H3 at 100 uM after 1 hr by radiochemical assay in presence of [acetyl-3H]-acetyl coenzyme A
reported property: inhibition (%)

Some compounds with recorded inhibition:
compound: O=c1cc(-c2ccc(Cl)cc2)nc(NN=C2CCCC2)[nH]1
inhibition / %: 31
//
compound: COc1ccc(-c2csc(NN=C3CCCCCC3)n2)cc1
inhibition / %: 16
//
compound: COc1ccc(-c2csc(NN=C3CCCC3)n2)cc1
inhibition / %: 33

1 = O=c1cc(-c2ccc(Br)cc2)nc(NN=C2CCCC2)[nH]1
2 = CC(C)=NNc1nc(-c2ccc(Cl)cc2)cs1
3 = CC1CC/C(=N/Nc2nc(-c3ccc(F)cc3)cs2)C1 (configuration not stated)
4 = Cc1sc(N/N=C2/CCC(C)C2)nc1-c1ccccc1 (configuration not stated)
Put the entries in order of inhibition, starting with the largest number. Provide your answer as the labels ordered per the instruction. 2, 4, 1, 3
(2: 31%, 4: 15%, 1: 9%, 3: 5%)
